As shown below, each of these binders has a reported KIRA:~ EC50 value.
- targetDesc: c-Ret (RET receptor tyrosine kinase) on NB41A3-mRL3 cells (UniProt P35546 29-1115, limits assumed)
- Sequence (P35546 29-1115 limits assumed): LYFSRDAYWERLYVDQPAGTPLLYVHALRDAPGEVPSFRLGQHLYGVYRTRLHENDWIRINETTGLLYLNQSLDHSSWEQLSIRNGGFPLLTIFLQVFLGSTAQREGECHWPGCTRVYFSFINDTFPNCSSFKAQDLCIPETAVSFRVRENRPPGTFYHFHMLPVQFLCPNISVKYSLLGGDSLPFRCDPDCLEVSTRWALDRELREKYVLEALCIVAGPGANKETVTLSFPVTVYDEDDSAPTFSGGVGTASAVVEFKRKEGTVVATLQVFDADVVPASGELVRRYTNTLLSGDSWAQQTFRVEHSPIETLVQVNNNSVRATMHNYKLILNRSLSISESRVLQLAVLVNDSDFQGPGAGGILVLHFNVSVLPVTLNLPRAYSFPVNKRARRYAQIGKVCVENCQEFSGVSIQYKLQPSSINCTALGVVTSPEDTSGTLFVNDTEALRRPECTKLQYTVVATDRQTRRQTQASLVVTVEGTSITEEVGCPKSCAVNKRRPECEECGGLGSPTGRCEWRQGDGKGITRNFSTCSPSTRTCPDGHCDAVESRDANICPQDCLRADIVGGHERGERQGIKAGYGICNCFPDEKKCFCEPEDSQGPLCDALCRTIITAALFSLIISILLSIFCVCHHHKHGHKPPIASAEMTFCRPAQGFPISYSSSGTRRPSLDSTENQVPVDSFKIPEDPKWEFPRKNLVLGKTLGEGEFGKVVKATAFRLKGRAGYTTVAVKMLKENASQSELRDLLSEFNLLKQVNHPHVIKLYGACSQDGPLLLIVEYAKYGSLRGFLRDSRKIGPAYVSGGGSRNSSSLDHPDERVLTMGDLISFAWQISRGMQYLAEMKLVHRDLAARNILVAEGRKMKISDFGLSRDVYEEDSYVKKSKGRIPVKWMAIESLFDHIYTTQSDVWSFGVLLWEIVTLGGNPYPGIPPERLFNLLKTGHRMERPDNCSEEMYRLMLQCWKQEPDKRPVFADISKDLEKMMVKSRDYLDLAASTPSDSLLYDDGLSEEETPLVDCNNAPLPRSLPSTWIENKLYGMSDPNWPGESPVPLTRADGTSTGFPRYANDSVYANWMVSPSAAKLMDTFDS
- assayText: cell-based or functional assay

| binder | valueObserved |
| --- | --- |
| 3(,4) × 10 kDa PEG NBN106-N95K (ligand, 10 kDa SPA-PEG at the amino termini and Lys95, average 3.3 PEG moieties per dimer (Table 8: 1, 1, 95 (,95)); mixture of 2, 3 and 4 PEG adducts) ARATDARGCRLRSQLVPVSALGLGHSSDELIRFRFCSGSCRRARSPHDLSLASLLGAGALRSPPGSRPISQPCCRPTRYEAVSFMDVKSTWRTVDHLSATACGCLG | ~1.6 nM |

Read the next record carefully.
Quick check: KIRA:~ EC50 of 2 × 10 kDa PEG-NBN (ligand, 10 kDa PEG on the amino-terminal amino acid of each chain (Table 8: 1, 1)) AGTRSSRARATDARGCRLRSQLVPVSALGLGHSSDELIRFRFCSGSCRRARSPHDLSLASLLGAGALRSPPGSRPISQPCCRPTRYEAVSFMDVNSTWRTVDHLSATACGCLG ? ~0.2 nM
